- System: Nannizzia gypsea
- procedure-text: Antifungal activity against Microsporum gypseum by serial dilution method
- Format: functional
measurement-label: MIC80 (µg/mL)
Kindly provide the numeric value in µg/mL only, without the unit symbol.

# example entries with known answers
1. O=C(Nc1ccccc1)c1cc2c(OCCCNCc3cccnc3)cccc2[nH]1    32
2. Fc1ccc(OCc2cc3c(OCCCNCc4cccnc4)cccc3[nH]2)cc1    32
3. O=C(Nc1ccc(F)c(F)c1)c1cc2c(OCCCNCc3cccnc3)cccc2[nH]1    16
4. Cc1c(COc2ccc(F)c(F)c2F)oc2cccc(OCCCNCc3cccnc3)c12    2

Proceeding to the next compound to report its MIC80.
Give Nannizzia gypsea MIC80 for the following compound: "c1ccc(SCc2cc3c(OCCCNCc4cccnc4)cccc3[nH]2)cc1"
8

Taken from ChEMBL document CHEMBL1240460.
